Item-by-item account of growth
System: SN12C renal
assay: NCI-60 one-dose screen, 48 h (100 = growth as untreated, 0 = no growth, -100 = all killed)
settings: 10 µM unless noted
About 83,000 compounds went through this panel and 20% of them were active in at least one assay; those are over-represented in the sample as a whole.
Numeric only. Scale: %

Examples from the recorded data:
O=C1[C@H]2Cc3c([nH]c4ccccc34)[C@@H](c3ccc(Br)cc3)N2C(=O)CN1C1CCN(CC2CCCCC2)CC1
-96.9
C=C1CC[C@@H]2[C@](C)(CO)[C@H](O)CC[C@@]2(C)[C@@H]1C/C(O)=C1\CCOC1=O
86.8
CN1CCN(Cc2ccc(NC(=O)c3cncc(C#Cc4cnc5ccc(N6CCN(C)CC6)nn45)c3)cc2C(F)(F)F)CC1
15.7
Clc1cccc(/C=N/Nc2nc(N/N=C/c3cccc(Cl)c3Cl)nc(N3CCCCC3)n2)c1Cl
80.7
COC[C@]12CCC(C)(C)C[C@H]1C1=CC[C@@H]3[C@@]4(C)CCCNC(C)(C)[C@@H]4CC[C@@]3(C)[C@]1(C)CC2
29.9
O=C1CCC(N2C(=O)c3ccc(NS(=O)(=O)c4ccccc4OC(F)(F)F)cc3C2=O)C(=O)N1 (stereo not given)
47.8
O=C(CSc1nc2ccccc2c(=O)n1-c1ccccc1)Nc1cccc(C(=O)/C=C/c2ccccc2Cl)c1
102
C#Cc1nc(C(C)=O)cs1
102

Record request: growth value, item O=C(CN1CCN(c2cc(=O)[nH]c3ccc(F)cc23)CC1)Nc1ccc(Cl)cc1
60.8

Next compound up: COc1cc(Cn2cc3c(c2)-c2onc(CN4CCCC4)c2CC3)cc(OC)c1OC
96.7

----------
Test system: MDA-MB-231 breast
assay: NCI-60 one-dose screen, 48 h
settings: 10 µM unless noted
The panel holds about 83,000 compounds, 20% with a hit somewhere; the sample as a whole holds those more often. Activity calls are given as the source filed them. The calls were made as follows: active = growth percent below 10; inactive = the rest.
Valid outcomes are listed here; reply with one: True for active, False for inactive

Cc1ccc(-c2nnc(SCc3ccc(O)c4ncccc34)o2)cc1
False

Assay outcome for Fc1ccc(-c2cc3nc(C(Cl)Cl)nc(-c4ccc(F)cc4)n3n2)cc1 : what was it?
True

Next compound up: Cc1ccc(-c2nnc(SCc3ccc(O)c4ncccc34)n2-c2ccccc2)cc1
False

Next compound up: NC(N)=Nc1ccc(Oc2cccc(Nc3ccc(Br)c(C(F)(F)F)c3)c2)cn1
True

Next compound up: COc1cc(-c2nn(C(C)(C)C)cc2-c2ccnc(NCCCNS(=O)(=O)c3ccc(F)cc3)n2)ccc1Cl
False

Next compound up: CCNC(=O)Oc1ccc(/C(=C(/C)c2ccccc2)c2ccc(OCCN3CCCCCC3)cc2)cc1
True

Next compound up: COC(=O)/C=C/c1c(C2(C)NC(=O)c3ccccc3N2)c(=O)oc2ccc(Cl)cc12 (configuration not stated)
False

----------
System: HCC-2998 colon
assay: NCI-60 one-dose screen, 48 h (100 = growth as untreated, 0 = no growth, -100 = all killed)
settings: 10 µM unless noted
About 83,000 compounds went through this panel and 20% of them were active in at least one assay; those are over-represented in the sample as a whole.
Item-by-item account of growth
Numeric only. Scale: %

Examples from the recorded data:
O=S(=O)(Nc1ccc(I)cc1Cl)c1ccc(-c2cnc(C3CC3)o2)cc1
78.6
C[C@H]1c2[nH]c3ccccc3c2C[C@H]2C(=O)N(CCCCCCC(=O)NO)CC(=O)N21
114
O=S(=O)(NCCNc1nccc(-n2cnc3ccccc32)n1)c1ccc(Br)cc1
103

Next molecule, growth to be filled in.
Record request: growth value, item O=C(NNc1nc2cc(F)ccc2n2c(CN3CC4CNCC4C3)ccc12)c1cnccn1 (centres undefined)
32.1

----------
Test system: NCI-H23 lung
assay: NCI-60 one-dose screen, 48 h (100 = growth as untreated, 0 = no growth, -100 = all killed)
settings: 10 µM unless noted
Compounds without any hit were thinned out: in the full panel of roughly 83,000, 20% have a hit. Activity calls are given as the source filed them. How the source made its calls: active means growth percent below 10; inactive means the rest.
quantity kind: growth

Record request: growth value, item COc1ccccc1NC1=C(Cl)C(=O)c2nc(C)ccc2C1=O
-8.37% (active)

Next compound up: CCCn1cnc2c(c1=N)C(c1ccc(F)cc1)c1sc3c(CC)cccc3c1O2 (centres undefined)
12.4% (inactive)

Next compound up: Cc1c(F)cc(C(N)=O)cc1NCC(=O)Nc1ccc([N+](=O)[O-])cc1
89.2% (inactive)

Next compound up: COc1cc(OC)c(S(N)(=O)=O)cc1C(=O)/C=C/c1ccc(Cl)cc1
6.85% (active)

----------
System: EKVX NSCLC
assay: NCI-60 one-dose screen, 48 h
settings: 10 µM unless noted
About 83,000 compounds went through this panel and 20% of them were active in at least one assay; those are over-represented in the sample as a whole. Calls of active or inactive are those of the source. The calls were made as follows: active = growth percent below 10; inactive = the rest.
Valid outcomes are listed here; reply with one: active, inactive

Completed entries (count: 3):
O=C(CNc1nc(-c2cccc([N+](=O)[O-])c2)cs1)Nc1cccc([N+](=O)[O-])c1
inactive
NC(N)=Nc1ccc(Oc2cccc(Nc3ccc(Br)c(C(F)(F)F)c3)c2)cn1
active
COc1ccc(-n2c(/C=C3\C(=O)Nc4ccccc43)ccc2CO)cc1
inactive

Assay outcome for NC(N)=Nc1ccc(Oc2cccc(Oc3ccc(Cl)c(C(F)(F)F)c3)c2)cn1 : what was it?
active

Next compound up: Cc1ccc(-c2nnc(SCc3ccc(O)c4ncccc34)n2-c2ccccc2)cc1
inactive

Next compound up: N#Cc1cn(Cc2ccc(Cl)cc2Cl)c(C(=O)c2ccc(Br)cc2)c1N
inactive

Next compound up: C#CCOc1ccc(/C=N\Nc2nc(-c3ccc(C)cc3)cs2)cc1OC
inactive

Next compound up: CCCCCc1ccc(S(=O)(=O)Nc2cccc(-c3csc(NC(=O)CCCCCN4CCN(CCO)CC4)n3)c2)cc1
inactive

Next compound up: NS(=O)(=O)c1ccc(Nc2nc(N/N=C/c3ccc(Cl)cc3)nc(Nc3ccccc3)n2)cc1
inactive

Next compound up: CC(C)(C)CC(C)(C)n1nnnc1C(Nc1nccs1)c1cc2cccc3ccc4cccc1c4c32 (stereo not drawn)
inactive

Next compound up: Nc1nc(-c2cccc([N+](=O)[O-])c2)c(N=Nc2ccc([N+](=O)[O-])cc2Cl)s1
active

Next compound up: CS(=O)(=O)Nc1cc(-c2ccc3ncc(C#N)c(Nc4cccc(Cl)c4F)c3c2)cnc1Cl
active

Next compound up: Cn1ccnc1C(=O)/C=C/c1ccc(NC(=O)c2ccc(F)cc2)cc1
inactive

Next compound up: COc1ccc(COc2ccc(/C=C3\C(=O)Nc4ccccc43)cc2OC)cc1
inactive

Next compound up: CN(Cc1ccccc1)S(=O)(=O)/N=C1\NC(=O)NC1=C(Cl)Cl
inactive

Next compound up: O=C(Nc1ccc(F)c(F)c1)c1cc(-c2ccc(F)cc2F)ccc1O
active

Next compound up: COc1ccc(CCOc2cc3c(cc2OC)CCN(C(=O)NCc2cocn2)C3c2ccc(C)cc2C)cc1 (stereo not drawn)
inactive

Next compound up: Cc1ccc(NC(=O)c2ccc(CN3CCOCC3)c(C(F)(F)F)c2)cc1Oc1ccc(-c2[nH]nc3ncnc(N)c23)cc1
inactive

Next compound up: CCN(CC)CCn1c2ccc(O)cc2c2sc3cc(OC)ccc3c(=O)c21
inactive

Next compound up: Cc1ccc2c(c1)C13C(=C2Br)CCCN1C(=O)c1ccccc13 (stereo not drawn)
inactive

Next compound up: N=c1c2cc(-c3ccccc3)oc2ncn1/N=C/c1ccc(Br)cc1
inactive

Next compound up: CS(=O)(=O)c1ccc(-n2cc(/C=N/O)c(-c3ccccc3)n2)cc1
inactive

Next compound up: Cc1ccc2c(c1)C(=O)/C(=C/c1cccc(F)c1)S2
inactive

----------
Test system: HCC-2998 colon
assay: NCI-60 one-dose screen, 48 h (100 = growth as untreated, 0 = no growth, -100 = all killed)
settings: 10 µM unless noted
Compounds without any hit were thinned out: in the full panel of roughly 83,000, 20% have a hit.
Criterion: growth meeting or surpassing 90%. Met: Condition met. Not met: Condition not met.

Completed entries (count: 6):
COc1cc(Nc2c(C#N)cnn3cc(-c4cnn(CC(C)(C)O)c4)cc23)ccc1Cl
Condition not met
NS(=O)(=O)c1ccc(Nc2cc(-c3ccccc3)nc(SCC(=O)c3ccccc3)n2)cc1
Condition met
N/C(=N\C(N)=N\c1nc2ccccc2s1)c1ccc(C(F)(F)F)cc1
Condition met
N=c1c2cc(-c3ccccc3)oc2ncn1/N=C/c1ccc(Cl)cc1
Condition met
Clc1ccc(N/N=c2/oc3ccccc3cc2-c2cc3ccccc3[nH]2)cc1
Condition met
CN1CCC(n2cc(Nc3ncc4c(=O)n(-c5c(Cl)cccc5Cl)cc(Br)c4n3)cn2)CC1
Condition not met

Quick check, growth >= 90%? COc1ccccc1NC1=C(Cl)C(=O)c2nc(C)ccc2C1=O
Condition not met

Next compound up: Cc1ccc(NC(=O)c2ccc(CN3CCOCC3)c(C(F)(F)F)c2)cc1Oc1ccc(-c2[nH]nc3ncnc(N)c23)cc1
Condition not met

Next compound up: C#CCOc1ccc(/C=N\Nc2nc(-c3ccc(C)cc3)cs2)cc1OC
Condition met

Next compound up: O=C1/C(=C/C=C/c2ccco2)SC(=S)N1c1ccccc1
Condition not met

Next compound up: COc1ccc(NCc2cn(-c3ccc(C(=O)O)cc3)nc2-c2cc(C(F)(F)F)cc(C(F)(F)F)c2)cc1
Condition met

Next compound up: O=C1[C@H]2Cc3c([nH]c4ccccc34)[C@@H](c3ccc(Cl)cc3)N2C(=O)CN1C1CCN(Cc2ccccc2)CC1
Condition not met
